The measurements presented in this section are drawn from ChEMBL document CHEMBL1139498.

- ASSAYED_TARGET: Transient receptor potential cation channel subfamily V member 1 (Homo sapiens)
- ASSAY_PROTOCOL: Agonistic activity for transient receptor potential vanilloid type 1 expressed in CHO cells
MEASUREMENT_TYPE: EC50 (µM)
Unit µM implied. Number only.

The compound listed as COc1cc(NC(=O)/C=C/c2ccc(C(C)(C)C)cc2)ccc1O shows EC50 equal to 0.44

* * *

- ASSAY_PROTOCOL: Maximum time required to attain Cmax in rat after oral administration of 5 mg/kg
- Assay type: ADME, organism-based
- Design: dose 5 mg/kg, route oral
- RUN_CONDITIONS: in vivo
MEASUREMENT_TYPE: Tmax
Quick note: number first, unit second.

// recorded Tmax for O=C(/C=C/c1ccc(C(F)(F)F)nc1N1CCOCC1)Nc1ccc2cccnc2c1 : 1.5 h

According to the records, this compound O=C(/C=C/c1ccc(C(F)(F)F)nc1N1CCCCC1)Nc1ccc2cccnc2c1 displays Tmax of 2 h

response.value for CC(C)(C)c1ccc(/C=C/C(=O)Nc2ccc3c(c2)OCCO3)cc1 (stereo in doubt; 1) (field: Tmax) = 0.5 h

* * *

- ASSAY_PROTOCOL: Area under concentration time curve from time 0 to infinity was determined in rat after intravenous administration of 3 mg/kg
- Type: ADME, organism-based
- Set-up: time infinity, dose 3 mg/kg, route intravenous
- RUN_CONDITIONS: in vivo
MEASUREMENT_TYPE: AUC (ng·h/mL)
Give the quantity in ng·h/mL, number only.

For record CC(C)(C)c1ccc(/C=C/C(=O)Nc2ccc3c(c2)OCCO3)cc1 (stereo in doubt; 1) the listed AUC is 680

* * *

- ASSAY_PROTOCOL: Area under concentration time curve from time 0 to infinity was determined in rat after oral administration of 5 mg/kg
- Type: ADME, organism-based
- Parameters: time infinity, dose 5 mg/kg, route oral
- RUN_CONDITIONS: in vivo
Assign AUC(0-inf) to each entry below.
Return type: number; implicit unit µg·h/mL.

The recorded AUC(0-inf) for entry CC(C)(C)c1ccc(/C=C/C(=O)Nc2ccc3c(c2)OCCO3)cc1 (stereo in doubt; 1) equals 0.024

Kindly note the recorded AUC(0-inf) for O=C(/C=C/c1ccc(C(F)(F)F)nc1N1CCOCC1)Nc1ccc2cccnc2c1 , which is 2.6

* * *

- ASSAYED_TARGET: Transient receptor potential cation channel subfamily V member 1 (Homo sapiens, UniProt Q8NER1)
- Sequence (Q8NER1 whole entry): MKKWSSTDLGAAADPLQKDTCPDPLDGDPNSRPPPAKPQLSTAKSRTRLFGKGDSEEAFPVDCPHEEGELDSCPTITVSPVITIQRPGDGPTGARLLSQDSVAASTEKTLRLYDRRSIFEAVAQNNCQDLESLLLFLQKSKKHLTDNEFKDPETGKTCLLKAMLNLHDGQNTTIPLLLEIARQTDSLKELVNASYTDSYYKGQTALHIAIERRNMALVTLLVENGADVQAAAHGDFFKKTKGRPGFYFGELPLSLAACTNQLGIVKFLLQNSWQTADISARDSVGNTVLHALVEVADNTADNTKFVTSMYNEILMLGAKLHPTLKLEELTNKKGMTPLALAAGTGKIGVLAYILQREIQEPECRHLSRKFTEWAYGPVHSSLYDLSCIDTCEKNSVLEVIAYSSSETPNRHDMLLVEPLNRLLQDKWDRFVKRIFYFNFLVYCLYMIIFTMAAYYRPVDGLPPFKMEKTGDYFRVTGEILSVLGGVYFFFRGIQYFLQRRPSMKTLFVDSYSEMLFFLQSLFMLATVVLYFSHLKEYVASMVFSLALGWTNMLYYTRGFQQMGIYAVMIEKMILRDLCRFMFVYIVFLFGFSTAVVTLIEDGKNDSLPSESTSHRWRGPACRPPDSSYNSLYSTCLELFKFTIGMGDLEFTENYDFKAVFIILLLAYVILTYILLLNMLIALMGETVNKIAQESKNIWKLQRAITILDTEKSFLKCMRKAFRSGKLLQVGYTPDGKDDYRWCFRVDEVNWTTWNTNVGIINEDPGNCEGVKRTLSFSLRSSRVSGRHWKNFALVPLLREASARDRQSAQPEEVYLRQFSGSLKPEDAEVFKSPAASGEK
- ASSAY_PROTOCOL: Inhibition of capsaicin-induced calcium uptake by transient receptor potential vanilloid type 1 expressed in CHO cells
- Type: functional, cell-based
pIC50: −log10 of the molar value.
Note that class boundaries on pIC50 are label 0 = under 6, label 1 = from 6 up to 7, label 2 = 7 and over

Please report the category associated with CC(C)(C)c1ccc(/C=C/C(=O)Nc2ccc3c(c2)OCCO3)c(Br)c1 , nothing else.
label 2

Class label required: CC(C)(C)c1ccc(/C=C/C(=O)Nc2ccc3c(c2)OCC(=O)N3)cc1
label 1

For the record CCc1ccc(/C=C/C(=O)Nc2ccc3c(c2)OCCO3)cc1 , report the class its pIC50 corresponds to.
label 1

Which of the defined bands does the recorded pIC50 of COc1cccc(NC(=O)/C=C/c2ccc(C(C)(C)C)cc2)c1 sit within?
label 2

Into which bin does this compound go? COc1ccccc1NC(=O)/C=C/c1ccc(C(C)(C)C)cc1
label 1

Each compound maps to one class by pIC50. Which class for CC(C)(C)c1ccc(/C=C/C(=O)Nc2ccc3c(c2)OCCO3)c(C(=O)O)c1 ?
label 0

Bin this entry: CCCCc1ccc(/C=C/C(=O)Nc2ccc3c(c2)OCCO3)cc1
label 1

Class for CC(C)(C)c1ccc(/C=C/CNc2ccc3c(c2)OCCO3)cc1 ?
label 0

Please report the category associated with CC(C)(C)c1ccc(/C(=C/C(=O)Nc2ccc3c(c2)OCCO3)c2ccc(C(F)(F)F)cc2)cc1 , nothing else.
label 2

Tag the class for Cc1ccc(/C=C/C(=O)Nc2ccc3c(c2)OCCO3)cc1
label 1

Bin this entry: O=C(/C=C/c1ccc(-c2ccccc2)cc1)Nc1ccc2c(c1)OCCO2
label 0

Class label required: CC(C)(C)c1ccc(/C(=C/C(=O)Nc2ccc3c(c2)OCCO3)c2ccncc2)cc1
label 2

Which pIC50 band matches COc1ccc(/C=C/C(=O)Nc2ccc3c(c2)OCCO3)cc1 ?
label 0

The entry to classify is CC(C)(C)c1ccc(C(=CC(=O)Nc2ccc3c(c2)OCCO3)c2ccc(C(C)(C)C)cc2)cc1 ; which class holds it?
label 0

Which class is correct for the following compound? CC(C)(C)c1ccc(/C=C/C(=S)Nc2ccc3c(c2)OCCO3)cc1
label 1

Textbook exercise: identify the category of the compound given here, O=C(/C=C/c1ccc(C(F)(F)F)nc1N1CCCCC1)Nc1ccc2c(c1)OCCO2 , according to its measured value.
label 2

Which class holds CC(C)c1ccc(/C=C/C(=O)Nc2ccc3c(c2)OCCO3)cc1 ?
label 2

Class for CC(C)(C)c1ccc(/C=C/C(=O)Nc2ccc3c(c2)OCCO3)nc1 ?
label 1
